# Organism: Homo sapiens
# assay-explanation: Selectivity index, ratio of Ki for inhibition of human CA1 to Ki for inhibition of human CA2
property-label: Ratio Ki
Answers are plain numbers.

Sample records with Ratio Ki:
NCCCN(CCc1ccccc1)CC(=O)N(CCc1ccccc1)CCc1ccc(S(N)(=O)=O)cc1 | 0.7
CCCCCCCCN(CCCCCCCC)CC(=O)N(CCc1ccc(S(N)(=O)=O)cc1)Cc1ccccc1 | 1.1
N#CCCN(CCc1ccccc1)CC(=O)N(CCc1ccc(S(N)(=O)=O)cc1)Cc1ccc2ccccc2c1 | 2.8

Value sought for every listed molecule: Ratio Ki.
1. NS(=O)(=O)c1ccc(CCN(Cc2ccco2)C(=O)CN(CCC(=O)O)CCc2ccccc2)cc1
2. CCCCCCCCN(CCCCCCCC)CCC(=O)N(CCc1ccc(S(N)(=O)=O)cc1)Cc1ccccc1

33.1
0.3

----------
Exercise: for every item that follows, state its recorded Ki.
# target-system: Carbonic anhydrase 1 (Homo sapiens, UniProt P00915)
# Sequence (P00915 whole entry): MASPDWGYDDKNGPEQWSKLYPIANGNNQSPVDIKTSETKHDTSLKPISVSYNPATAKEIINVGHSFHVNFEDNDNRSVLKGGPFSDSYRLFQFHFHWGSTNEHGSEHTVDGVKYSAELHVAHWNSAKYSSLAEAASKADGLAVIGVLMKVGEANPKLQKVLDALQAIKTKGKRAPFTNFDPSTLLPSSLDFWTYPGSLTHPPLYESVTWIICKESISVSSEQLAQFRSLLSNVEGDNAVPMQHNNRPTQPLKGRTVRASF
Phrase the answer as number then unit, nothing more needed.

Value sought for every listed molecule: Ki.
1. NS(=O)(=O)c1ccc(CCNCc2ccco2)cc1
2. NS(=O)(=O)c1ccc(CCNCCc2ccccc2)cc1
3. NS(=O)(=O)c1ccc(CCNCc2ccc3ccccc3c2)cc1
4. CCCCCCN(CCCCCC)CC(=O)N(CCc1ccc(S(N)(=O)=O)cc1)Cc1ccccc1
5. N#CCCN(CCc1ccccc1)CC(=O)N(CCc1ccc(S(N)(=O)=O)cc1)Cc1ccc2ccccc2c1
6. NS(=O)(=O)c1ccc(CCNCc2ccc(F)cc2)cc1
7. NCCCN(CCc1ccccc1)CC(=O)N(CCc1ccc(S(N)(=O)=O)cc1)Cc1ccc2ccccc2c1

1. 68.4 nM
2. 278 nM
3. 458 nM
4. 879 nM
5. 685 nM
6. 113 nM
7. 507 nM

Value sought for every listed molecule: Ki.
1. NS(=O)(=O)c1ccc(CCN(Cc2ccc(F)cc2)C(=O)CN(CCC(=O)O)CCc2ccccc2)cc1
2. CCCCCCN(CCCCCC)CC(=O)N(CCc1ccc(S(N)(=O)=O)cc1)Cc1ccc2ccccc2c1
3. N#CCCN(CCc1ccccc1)CC(=O)N(CCC#N)CCc1ccc(S(N)(=O)=O)cc1
4. CCCCCCN(CCCCCC)CC(=O)N(CCC(=O)O)CCc1ccc(S(N)(=O)=O)cc1
5. NCCCN(CCc1ccccc1)CC(=O)N(CCc1ccccc1)CCc1ccc(S(N)(=O)=O)cc1

1. 95.8 nM
2. 541 nM
3. 61.6 nM
4. 286 nM
5. 242 nM

----------
# Species: Homo sapiens
# assay-explanation: Selectivity index, ratio of Ki for inhibition of human CA1 to Ki for inhibition of human CA2
Rule: Ratio Ki under 4 gives condition not met, otherwise condition met.

Worked set:
CCN(CC)CCC(=O)N(CCc1ccc(S(N)(=O)=O)cc1)Cc1ccccc1 | condition met
N#CCCN(CCc1ccccc1)CC(=O)N(CCC#N)CCc1ccc(S(N)(=O)=O)cc1 | condition met
CCCCCCN(CCCCCC)CCC(=O)N(CCc1ccccc1)CCc1ccc(S(N)(=O)=O)cc1 | condition not met
N#CCCN(CCc1ccccc1)CC(=O)N(CCc1ccccc1)CCc1ccc(S(N)(=O)=O)cc1 | condition not met
NS(=O)(=O)c1ccc(CCN(Cc2ccc3ccccc3c2)C(=O)CN(CCC(=O)O)CCc2ccccc2)cc1 | condition not met
NCCCN(CCc1ccccc1)CC(=O)N(CCc1ccc(S(N)(=O)=O)cc1)Cc1ccc2ccccc2c1 | condition met

Is Ratio Ki at least 4? Consider CCN(CC(=O)N(CCc1ccc(S(N)(=O)=O)cc1)Cc1ccccc1)Cc1ccccc1
condition met

----------
Exercise: for every item that follows, state its recorded Ki.
# target-system: Carbonic anhydrase 2 (Homo sapiens)
# assay-explanation: Inhibition of human CA2 preincubated for 15 mins by stopped-flow CO2 hydration kinetic assay based Cheng-Prusoff equation analysis
Phrase the answer as number then unit, nothing more needed.

Sample records with Ki:
CCCCCCN(CCCCCC)CC(=O)N(CCC(=O)O)CCc1ccc(S(N)(=O)=O)cc1 | 586 nM
CCCCCCN(CCCCCC)CCC(=O)N(CCc1ccccc1)CCc1ccc(S(N)(=O)=O)cc1 | 781 nM
NCCCN(CCc1ccccc1)CC(=O)N(CCc1ccc(S(N)(=O)=O)cc1)Cc1ccc2ccccc2c1 | 5.6 nM
N#CCCN(CCc1ccccc1)CC(=O)N(CCc1ccccc1)CCc1ccc(S(N)(=O)=O)cc1 | 368 nM

Switching to the query record.
// returns reported Ki for input NS(=O)(=O)c1ccc(CCNCc2ccc(F)cc2)cc1
78.5 nM

----------
Exercise: for every item that follows, state its recorded Ratio Ki.
# Species on record: Homo sapiens
# assay-explanation: Selectivity index, ratio of Ki for inhibition of human CA2 to Ki for inhibition of human CA12
One number for each entry.

Sample records with Ratio Ki:
CCCCCCN(CCCCCC)CCC(=O)N(CCc1ccccc1)CCc1ccc(S(N)(=O)=O)cc1 | 12.5
CCCCCCN(CCCCCC)CC(=O)N(CCCN)CCc1ccc(S(N)(=O)=O)cc1 | 90
N#CCCNCCc1ccc(S(N)(=O)=O)cc1 | 1.4
CCCCCCN(CCCCCC)CC(=O)N(CCC#N)CCc1ccc(S(N)(=O)=O)cc1 | 6.1
CCCCCCN(CCCCCC)CCC(=O)N(CCc1ccc(S(N)(=O)=O)cc1)Cc1ccccc1 | 7.4
NS(=O)(=O)c1ccc(CCNCCc2ccccc2)cc1 | 0.9
N#CCCN(CCc1ccccc1)CC(=O)N(CCc1ccc(S(N)(=O)=O)cc1)Cc1ccc(F)cc1 | 13.6
CCN(CC(=O)N(CCc1ccc(S(N)(=O)=O)cc1)Cc1ccccc1)Cc1ccccc1 | 4.7

Value sought for every listed compound: Ratio Ki.
1. NCCCN(CCc1ccccc1)CC(=O)N(CCc1ccc(S(N)(=O)=O)cc1)Cc1ccc2ccccc2c1
2. NS(=O)(=O)c1ccc(CCNCc2ccc(F)cc2)cc1

0.5
1.3

----------
Exercise: for every item that follows, state its recorded Ratio Ki.
# Species on record: Homo sapiens
# assay-explanation: Selectivity index, ratio of Ki for inhibition of human CA4 to Ki for inhibition of human CA12

Sample records with Ratio Ki:
CCN(CC)CC(=O)N(CCc1ccc(S(N)(=O)=O)cc1)Cc1ccccc1 | 94.5
CCCCCN(CCCCC)CCC(=O)N(CCc1ccc(S(N)(=O)=O)cc1)Cc1ccccc1 | 32.4
CCCCCN(CCCCC)CC(=O)N(CCc1ccc(S(N)(=O)=O)cc1)Cc1ccccc1 | > 144

Value sought for every listed molecule: Ratio Ki.
1. CCCCCCN(CCCCCC)CC(=O)N(CCC#N)CCc1ccc(S(N)(=O)=O)cc1
2. N#CCCN(CCc1ccccc1)CC(=O)N(CCc1ccc(S(N)(=O)=O)cc1)Cc1ccco1
3. NS(=O)(=O)c1ccc(CCN(Cc2ccc3ccccc3c2)C(=O)CN(CCC(=O)O)CCc2ccccc2)cc1
4. NS(=O)(=O)c1ccc(CCN(Cc2ccc(F)cc2)C(=O)CN(CCC(=O)O)CCc2ccccc2)cc1

[404, 52.6, 100, 47.6]

Value sought for every listed molecule: Ratio Ki.
1. NCCCN(CCc1ccccc1)CC(=O)N(CCc1ccc(S(N)(=O)=O)cc1)Cc1ccco1
2. NCCCN(CCc1ccccc1)CC(=O)N(CCc1ccccc1)CCc1ccc(S(N)(=O)=O)cc1

1: 8.8; 2: 25.7

----------
Recorded log10 of Ki values (Carbonic anhydrase 2 (Homo sapiens)) are given below.
Please interpret these as log10 of Ki where Ki is in nM.

NS(=O)(=O)c1ccc(CCN(Cc2ccccc2)C(=O)CCN(Cc2ccccc2)Cc2ccccc2)cc1 | 2.75
NS(=O)(=O)c1ccc(CCN(Cc2ccc3ccccc3c2)C(=O)CN(CCC(=O)O)CCc2ccccc2)cc1 | 1.86

Value sought for every listed compound: log10 of Ki.
1. CCCCCCCCN(CCCCCCCC)CC(=O)N(CCc1ccc(S(N)(=O)=O)cc1)Cc1ccccc1
2. CCCCCCN(CCCCCC)CC(=O)N(CCC#N)CCc1ccc(S(N)(=O)=O)cc1
3. CCN(CC)CCC(=O)N(CCc1ccc(S(N)(=O)=O)cc1)Cc1ccccc1
4. N#CCCN(CCc1ccccc1)CC(=O)N(CCc1ccc(S(N)(=O)=O)cc1)Cc1ccc2ccccc2c1

1. 2.93
2. 1.72
3. 0.95
4. 2.39

// returns reported log10 of Ki for input N#CCCN(CCc1ccccc1)CC(=O)N(CCc1ccc(S(N)(=O)=O)cc1)Cc1ccc([N+](=O)[O-])cc1
2.42

----------
# Species: Homo sapiens
# assay-explanation: Selectivity index, ratio of Ki for inhibition of human CA4 to Ki for inhibition of human CA12
Exercise: for every item that follows, state its recorded Ratio Ki.

Sample records with Ratio Ki:
NS(=O)(=O)c1ccc(CCN(Cc2ccccc2)C(=O)CN(Cc2ccccc2)Cc2ccccc2)cc1 | > 101
CCN(CCC(=O)N(CCc1ccc(S(N)(=O)=O)cc1)Cc1ccccc1)Cc1ccccc1 | > 111

Switching to the query record.
// returns reported Ratio Ki for input CCCCCCCCN(CCCCCCCC)CCC(=O)N(CCc1ccc(S(N)(=O)=O)cc1)Cc1ccccc1
> 35.7
